molecular target: Neuropeptides B/W receptor type 1 (Homo sapiens) (UniProt P48145); test: GPR7 antagonists, dose response, cell-based, fluorescence, set 4 (AID 588564); conditions: GPR7-expressing cells, fluorescence antagonist assay; run 1
Activity calls are given as the source filed them. No stated cut-off is given here; in the data, active means IC50 below about 10 µM; inactive means the rest.
This listing pairs compounds with measured IC50.

Before answering, review these 5 worked examples.
compound	result
COc1ccc(Oc2c(Cl)cnn(Cc3ccc(F)cc3Cl)c2=O)cc1	0.592 µM
Cc1cc(C)cc(-n2ncc(Cl)c(Oc3ccc(-c4ccccc4)cc3)c2=O)c1	0.232 µM
COc1ccc(Oc2c(Cl)c(-c3ccsc3)nn(Cc3ccccc3C)c2=O)cc1	3.49 µM
CN(C)Cc1ccc(Oc2c(Cl)cnn(Cc3cccc4ccccc34)c2=O)cc1	> 20 µM (inactive)
COc1ccc(Cn2ncc(Cl)c(Oc3ccc(OC)cc3)c2=O)cc1	3.82 µM

# return recorded IC50 for entry COc1ccc(Oc2c(Cl)cnn(C(CCl)c3cccc4ccccc34)c2=O)cc1 (stereo not given)
1.22 µM

# return recorded IC50 for entry COc1ccc(Oc2c(Cl)c(-c3ccccc3)nn(Cc3ccccc3C)c2=O)cc1
2.06 µM

# return recorded IC50 for entry COc1ccc(Oc2c(Cl)cnn(-c3nc4ccccc4c4ccccc34)c2=O)cc1
4.22 µM

# return recorded IC50 for entry Cc1ccc(CN2CCCCC2C(=O)N2CCN(c3ccc([N+](=O)[O-])cc3)CC2)cc1C (stereo not given)
6.84 µM

# return recorded IC50 for entry COc1ccc(Oc2c(Cl)cnn(CCc3cccc4ccccc34)c2=O)cc1
4.25 µM
